Where do these numbers come from? They come from patent US20120321614A1.

# assayed-target: T1, c-Met ECD-Fc (cynomologus) (cynomologus, UniProt A0A2K5UM36 25-932)
# T1 construct: also called cynomologus c-Met ECD-Fc
# T1 sequence (A0A2K5UM36 entry or part of it limits assumed): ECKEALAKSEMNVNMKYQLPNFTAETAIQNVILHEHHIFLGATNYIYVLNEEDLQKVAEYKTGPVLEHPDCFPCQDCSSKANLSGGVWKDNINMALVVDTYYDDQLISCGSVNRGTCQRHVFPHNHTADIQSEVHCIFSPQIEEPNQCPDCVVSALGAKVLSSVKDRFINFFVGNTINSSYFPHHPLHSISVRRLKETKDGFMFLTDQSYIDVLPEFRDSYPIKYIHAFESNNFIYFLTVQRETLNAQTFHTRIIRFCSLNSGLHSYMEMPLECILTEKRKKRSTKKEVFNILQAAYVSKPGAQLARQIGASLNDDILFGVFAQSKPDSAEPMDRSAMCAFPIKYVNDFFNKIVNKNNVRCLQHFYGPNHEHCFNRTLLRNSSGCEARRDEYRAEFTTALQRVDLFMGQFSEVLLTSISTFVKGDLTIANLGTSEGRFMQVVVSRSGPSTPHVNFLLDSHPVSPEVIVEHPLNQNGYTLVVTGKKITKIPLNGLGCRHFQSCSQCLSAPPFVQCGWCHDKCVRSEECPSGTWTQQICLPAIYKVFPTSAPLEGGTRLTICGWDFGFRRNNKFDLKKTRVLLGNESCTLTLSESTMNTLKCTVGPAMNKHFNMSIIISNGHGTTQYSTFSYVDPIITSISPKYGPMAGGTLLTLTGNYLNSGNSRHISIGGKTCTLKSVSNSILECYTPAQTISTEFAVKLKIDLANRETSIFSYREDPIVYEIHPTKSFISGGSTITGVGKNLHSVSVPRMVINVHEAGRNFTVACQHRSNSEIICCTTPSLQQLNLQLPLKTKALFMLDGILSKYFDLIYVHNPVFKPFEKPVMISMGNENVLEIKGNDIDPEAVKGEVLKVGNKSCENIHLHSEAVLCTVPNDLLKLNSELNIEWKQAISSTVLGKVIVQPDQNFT
# method-description: SPR (BIACORE 3000), cynomologus c-Met ECD-Fc immobilized, antibody injected, 1:1 model
Measured Kd by item
API: value field is a number in nM; no unit string.

Asked: Name the recorded Kd of the item anti-c-Met monoclonal antibody 13.3.2L-A91T, H-E42K, S97T (antibody, human IgG2, kappa, V domains shown, positions 42, 97, 14 and 91 count from the N-terminal amino acid and may not count on the entry with its leader) VH: QVQLVQSGAEVKKPGASVKVSCKASGYTFTSYGFSWVRQAPGQGLEWMGWISASNGNTYYAQKLQGRVTMTTDTSTSTAYMELRSLRSDDTAVYYCARVYADYADYWGQGTLVTVSS VL: DIQMTQSPSSVSASVGDRVTITCRASQGINTWLAWYQQKPGKAPKLLIYAASSLKSGVPSRFSGSGSGTDFTLTISSLQPEDFATYYCQQANSFPLTFGGGTKVEIKR in your answer.
Given back: 0.61

Asked: Name the recorded Kd of the item anti-c-Met monoclonal antibody 8.70.2 (antibody, V domains shown, Human IgG2 kappa; also called hybridoma 8.70.2 (LN 15885); PTA-5028) VH: QLQLQESGPGLVKPSETLSLTCTVSGGSISSSSYYGGWIRQPPGKGLDWIGSIYYSGNTYYNPSLKSRVTISVDTSKNQFSLKLSSVTAADTAVYYCARHSWDYFDYWDQGTLVTVSS VL: DIQMTQSPSSVSASVGDRVTITCRASQGISSWLAWYQQKPGKAPKLLIYAASSLQSGVPSRFSGSGSGTDFTLTISSLQSEDFATYYCQQANSFPITFGPGTKVEIKR in your answer.
Given back: 0.32

Asked: Name the recorded Kd of the item anti-c-Met monoclonal antibody 13.3.2 (antibody, human IgG2, kappa, V domains shown, Human IgG2 kappa from XenoMouse hybridoma; The variable positions X2, X4, X6, X8 correspond to positions 42, 97, 14 (heavy) and 91 (light), where position one is the N-terminal amino acid; these numbers may not count on the entry with its leader; also called PTA-5026) VH: QVQLVQSGAEVKKPGASVKVSCEASGYTFTSYGFSWVRQAPGQGLEWMGWISASNGNTYYAQKLQGRVTMTTDTSTSSAYMELRSLRSDDTAVYYCARVYADYADYWGQGTLVTVSS VL: DIQMTQSPSSVSASVGDRVTITCRASQGINTWLAWYQQKPGKAPKLLIYAASSLKSGVPSRFSGSGSGADFTLTISSLQPEDFATYYCQQANSFPLTFGGGTKVEIKR in your answer.
Given back: 0.6
